The values you see were collected from patent US12493040B2.

- Test system: RNAi-treated eri-1 (mg366) nematodes
- protocol text: RNAi screening of olfactory receptor genes: chemotaxis assay of RNAi-treated nematodes to odorants
- Type: in vivo, Caenorhabditis elegans
- cond: srh-48 RNAi-treated nematodes; low concentration of attractant
Please respond with reported chemotaxis index for every item in the list.
Simply state the number, no unit and no words.

IN: Name the recorded chemotaxis index for Cc1nc(C)c(C)s1 [trimethylthiazole] .
OUT: 0.65

IN: Name the recorded chemotaxis index for CCC(=O)C(C)=O [pentanedione] .
OUT: 0.38

IN: Name the recorded chemotaxis index for CCC(C)=O [butanone] .
OUT: 0.55

IN: Name the recorded chemotaxis index for c1cnccn1 [pyrazine] .
OUT: 0.15
